pKd: −log10 of the molar value.
Assay system Human Cbl-b (residues 40-426) (Homo sapiens (Human)); read-out recorded as pKd.
measurementName: pKd

Example compounds with recorded pKd:
{"columns": ["compound", "pKd"],
 "data": [
  ["CO[C@H]1C[C@](c2cccc(N3Cc4c(cc(CNCCOC(F)F)cc4C(F)(F)F)C3=O)c2)(c2nncn2C)C1", 8.54],
  ["CC[C@H]1C[C@](c2cccc(N3Cc4c(Cl)cc(CNC5(C)CCC5)cc4C3=O)c2)(c2nncn2C)C1", 9.00],
  ["C=CCNc1cc(N2Cc3c(cc(CNC4(C)CCC4)cc3C(F)(F)F)C2=O)cc([C@]2(c3nncn3C)C[C@H](OC)C2)c1", 8.85],
  ["COc1cc([C@@H](c2nncn2C)C2COC2)cc(N2Cc3c(cc(CNC4(C)CCC4)cc3C(F)(F)F)C2=O)c1 (single isomer, unassigned)", 8.77],
  ["C=CCNc1cc(N2Cc3c(cc(CNC4(C)CCC4)cc3C(F)(F)F)C2=O)cc([C@]2(c3nncn3C)C[C@@H](OC)C2)c1", 8.64]
]}

(P) CO[C@H]1C[C@@](c2cc(OC3COC3)cc(N3Cc4c(cc(CNC5(C)CCC5)cc4C(F)(F)F)C3=O)c2)(c2nncn2C)C1
(Q) Cn1cnnc1[C@@H](c1cccc(N2Cc3c(cc(CNC4(C)CCC4)cc3C(F)(F)F)C2=O)c1)[C@H]1C[C@@H](C)C1 (single isomer, unassigned)
input: I'd appreciate it if you could identify which of P and Q has the greater pKd. Kindly state the label of the option you pick.
output: Q
(Q: 9.05, P: 7.47)

(a) COC1CC([C@@H](c2cccc(N3Cc4c(cc(CNC5(C)CCC5)cc4C(F)(F)F)C3=O)c2)c2nncn2C)C1 (single isomer, unassigned)
(b) Cc1cnnn1[C@@H](c1cccc(N2Cc3c(cc(CNC4(C)CCC4)cc3C(F)(F)F)C2=O)c1)C1COC1 (single isomer, unassigned)
input: Could you point out whether the larger pKd belongs to a or to b ? Respond using the label that marks the chosen record.
output: b

====

# targetSystem: UniProt Q13191
# procedureSummary: Cbl-b LCK Ub TR-FRET assay (Cbl-b Lck HTRF)
# Format: biochemical
# conditionLabel: Cbl-b LCK Ub TR-FRET
pIC50: −log10 of the molar value.
measurementName: pIC50

(a) Cn1cnnc1[C@]1(c2cc(NC3CCCC3)nc(N3Cc4c(cc(CNC5(C)CCC5)cc4C(F)(F)F)C3=O)c2)C[C@H](C)C1 [Compound 53]
(b) Cn1cnnc1[C@]1(c2cccc(N3Cc4c(cc(CNC5(C)CCC5)cc4C(F)(F)F)C3=O)c2)C[C@@H](S(C)(=O)=O)C1 [Compound 325]
(c) C[C@@H](NC1(C)CCC1)c1cc2c(c(C(F)(F)F)c1)CN(c1cccc(C(c3nncn3C)C3COC3)c1)C2=O (stereo partly drawn) [Compound 284]
input: sort_by: pIC50; order: ascending; scope: items listed above In plain terms: list the labels in the order you were asked to.
output: b, c, a

====

# targetSystem: Cbl-b (Homo sapiens (Human), UniProt Q13191)
# procedureSummary: Cbl-b LCK Ub TR-FRET assay (Cbl-b Lck HTRF)
# Type: biochemical
# conditionLabel: Cbl-b LCK Ub TR-FRET
pIC50: −log10 of the molar value.
measurementName: pIC50

Some entries whose results are on file:
{"columns": ["molecule", "pIC50"],
 "data": [
  ["CO[C@H]1C[C@@](c2cc(OC3CCCC3)nc(N3Cc4c(cc(CNC5(C)CCC5)cc4C(F)(F)F)C3=O)c2)(c2nncn2C)C1", 7.85],
  ["Cn1cnnc1C1(c2cccc(N3Cc4c(cc(CNC5(C)CCC5)cc4C(F)(F)F)C3=O)c2)CC2(C1)OCCO2", 7.19],
  ["Cn1cnnc1[C@H](c1cccc(N2Cc3c(cc(CNC4(C)CCC4)cc3C(F)(F)F)C2=O)c1)C1CC(F)C1 (single isomer, unassigned) [Compound 128]", 6.62]
]}

(I) CNc1cc(N2Cc3c(cc(CNC4(C)CCC4)cc3C(F)(F)F)C2=O)cc([C@]2(c3nncn3C)C[C@@H](OC)C2)c1
(II) Cn1cnnc1[C@]1(c2cccc(N3Cc4c(cc(CNC5(C)CCC5)cc4C(F)(F)F)C3=O)c2)C[S@+]([O-])C1
input: Given the two records I and II , choose the one whose pIC50 value is lower. Use the label to indicate which entry you chose.
output: II
(II: 6.70, I: 7.92)

(P) Cn1cnnc1[C@]1(c2cccc(N3Cc4c(cc(CNC5(C)CCC5)cc4C(F)(F)F)C3=O)c2)C[C@@H](C#N)C1
(Q) CC(C)[C@](O)(c1cccc(N2Cc3c(cc(CNC4(C)CCC4)cc3C(F)(F)F)C2=O)c1)c1nncn1C
input: Looking at recorded values for pIC50, does P or Q come in lower? Could you answer with the label of the item you picked?
output: Q
(Q: 7.62, P: 7.89)

(a) CC[C@H]1C[C@@](c2cccc(N3Cc4c(Cl)cc(CNC5(C)CCC5)cc4C3=O)c2)(c2nncn2C)C1
(b) Cn1cnnc1[C@]1(c2cccc(N3Cc4c(cc(CNC5(C)CCC5)cc4C(F)(F)F)C3=O)c2)C[C@H](O)C1
input: Could you kindly indicate whether a or b has the higher pIC50 value? # reply format: chosen label
output: a
(a: 8.18, b: 7.74)

(P) Cn1cnnc1C1(c2cccc(N3Cc4c(cc(CNC5(C)CCC5)cc4C(F)(F)F)C3=O)c2)CC(C)(C)C1
(Q) Cn1cnnc1[C@@]1(c2cccc(N3Cc4c(cc(CNC5(C)CCC5)cc4C(F)(F)F)C3=O)c2)CCC(F)(F)C1 (single isomer, unassigned)
input: Which of these two has the smaller recorded pIC50: P or Q ? Write down the label attached to your selection.
output: Q

====

# targetSystem: Human Cbl-b (residues 40-426) (Homo sapiens (Human))
# Sequence (Q13191 40-426): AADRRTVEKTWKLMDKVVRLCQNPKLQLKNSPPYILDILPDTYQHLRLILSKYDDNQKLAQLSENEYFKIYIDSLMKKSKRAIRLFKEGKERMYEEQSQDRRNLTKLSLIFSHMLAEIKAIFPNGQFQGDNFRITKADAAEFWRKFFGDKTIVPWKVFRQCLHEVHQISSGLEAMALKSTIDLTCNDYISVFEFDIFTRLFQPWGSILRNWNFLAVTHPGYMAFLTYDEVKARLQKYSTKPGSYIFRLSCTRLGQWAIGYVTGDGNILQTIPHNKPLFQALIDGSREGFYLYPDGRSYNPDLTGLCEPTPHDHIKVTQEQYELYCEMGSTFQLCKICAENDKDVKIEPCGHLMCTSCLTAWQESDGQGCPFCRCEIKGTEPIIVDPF
# procedureSummary: Cbl-b SPR assay
# Type: binding
# conditionLabel: C-cbl SPR Kd vs Cbl-b SPR Kd
measurementName: Fold of selectivity (×)

Completed entries (count: 3):
{"columns": ["molecule", "Fold of selectivity (×)"],
 "data": [
  ["CCOC1CC([C@@H](c2cccc(N3Cc4c(cc(CNC5(C)CCC5)cc4C(F)(F)F)C3=O)c2)c2nncn2C)C1 (single isomer, unassigned)", 7.6],
  ["CO[C@H]1C[C@](c2cc(C3CC3)cc(N3Cc4c(cc(CNC5(C)CCC5)cc4C(F)(F)F)C3=O)c2)(c2nncn2C)C1", 3.2],
  ["CCNc1cc(N2Cc3c(cc(CNC4(C)CCC4)cc3C(F)(F)F)C2=O)cc([C@]2(c3nncn3C)C[C@H](OC)C2)c1", 4.7]
]}

(I) Cn1cnnc1[C@]1(c2cc(NC3CCCC3)cc(N3Cc4c(cc(CNC5(C)CCC5)cc4C(F)(F)F)C3=O)c2)C[C@@H](C)C1
(II) Cn1cnnc1[C@H](c1cccc(N2Cc3c(cc(CNC4(C)CCC4)cc3C(F)(F)F)C2=O)c1)n1ccnc1 (single isomer, unassigned)
(III) CO[C@H]1C[C@](c2cc(NC3CCCC3)nc(N3Cc4c(cc(CNC5(C)CCC5)cc4C(F)(F)F)C3=O)c2)(c2nncn2C)C1 [Compound 9]
input: Returns the items ordered by Fold of selectivity, from maximum to minimum. Respond with an ordered listing of the labels, as requested.
output: III, I, II

====

# targetSystem: Human Cbl-b (residues 40-426) (Homo sapiens (Human))
# procedureSummary: Cbl-b SPR assay
# Format: binding
# conditionLabel: C-cbl SPR Kd vs Cbl-b SPR Kd
measurementName: Fold of selectivity (×)

Here's what some known entries look like.
{"columns": ["compound", "targetSystem", "measurementName", "quantitativeResult"],
 "data": [
  ["CC[C@@H](NC1(C)CCC1)c1cc2c(c(C(F)(F)F)c1)CN(c1cccc([C@@H](c3nncn3C)C3COC3)c1)C2=O (single isomer, unassigned) [Compound 316]", "Human Cbl-b (residues 40-426) (Homo sapiens (Human))", "Fold of selectivity", 7.5],
  ["Cn1cnnc1C(c1cccc(N2Cc3c(cc(CNC4(C)CCC4)cc3C(F)(F)F)C2=O)c1)[C@H]1C[C@H](Cl)C1 (single isomer, unassigned) [Compound 356]", "Human Cbl-b (residues 40-426) (Homo sapiens (Human))", "Fold of selectivity", 11],
  ["Cn1cnnc1[C@@H](c1cccc(N2Cc3c(cc(CNC4(C)CCC4)cc3C(F)F)C2=O)c1)C1COC1 (single isomer, unassigned) [Compound 303]", "Human Cbl-b (residues 40-426) (Homo sapiens (Human))", "Fold of selectivity", 8.2]
]}

(A) CO[C@H]1C[C@](c2cccc(N3Cc4c(cc(CN[C@@]56CCC[C@@H]5C6)cc4C(F)(F)F)C3=O)c2)(c2nncn2C)C1 [Compound 508]
(B) Cn1cnnc1[C@]1(c2cccc(N3Cc4c(cc(CNC5(C)CCC5)cc4C(F)(F)F)C3=O)c2)C[C@H](C#N)C1 [Compound 25]
input: Between item A and item B , which reported Fold of selectivity is smaller? Identify your pick by its label.
output: B
(B: 5.4 ×, A: 14 ×)
